Below, each entry is listed alongside its reported Vd.
Assay Info: Volume of distribution at steady state in mouse at 3 mg/kg, iv and 10 mg/kg, po
Type: ADME, organism-based
Measurement Conditions: in vivo, read-out: Vdss
Measured Metric: Vd (L/kg)

Smiles Str	Measured Metric	Unit String	Observed Value
CC(C)Cc1nc2ccccc2n1Cc1cc(=O)[nH]c2c(F)c(F)ccc12	Vd	L/kg	1.1
O=c1cc(Cn2c(C3CCC3)nc3nccnc32)c2ccc(F)c(F)c2[nH]1	Vd	L/kg	0.39
O=c1cc(Cn2c(C3CC(F)(F)C3)nc3nccnc32)c2cccc(F)c2[nH]1	Vd	L/kg	0.67
O=c1cc(Cn2c(C3CCC3)nc3nccnc32)c2cccc(F)c2[nH]1	Vd	L/kg	0.47
CC(C)c1nc2ccccc2n1Cc1cc(=O)[nH]c2c(F)c(F)ccc12	Vd	L/kg	0.7
Cc1ncsc1-c1nc2ccccc2n1Cc1cc(=O)[nH]c2c(F)c(F)ccc12	Vd	L/kg	1.2
CC(C)Cc1nc2nccnc2n1Cc1cc(=O)[nH]c2c(F)c(F)ccc12	Vd	L/kg	6.8

----------
As shown below, each of these molecules has a reported EC50 value.
Test System: UniProt:P35228
Sequence (P35228 whole entry): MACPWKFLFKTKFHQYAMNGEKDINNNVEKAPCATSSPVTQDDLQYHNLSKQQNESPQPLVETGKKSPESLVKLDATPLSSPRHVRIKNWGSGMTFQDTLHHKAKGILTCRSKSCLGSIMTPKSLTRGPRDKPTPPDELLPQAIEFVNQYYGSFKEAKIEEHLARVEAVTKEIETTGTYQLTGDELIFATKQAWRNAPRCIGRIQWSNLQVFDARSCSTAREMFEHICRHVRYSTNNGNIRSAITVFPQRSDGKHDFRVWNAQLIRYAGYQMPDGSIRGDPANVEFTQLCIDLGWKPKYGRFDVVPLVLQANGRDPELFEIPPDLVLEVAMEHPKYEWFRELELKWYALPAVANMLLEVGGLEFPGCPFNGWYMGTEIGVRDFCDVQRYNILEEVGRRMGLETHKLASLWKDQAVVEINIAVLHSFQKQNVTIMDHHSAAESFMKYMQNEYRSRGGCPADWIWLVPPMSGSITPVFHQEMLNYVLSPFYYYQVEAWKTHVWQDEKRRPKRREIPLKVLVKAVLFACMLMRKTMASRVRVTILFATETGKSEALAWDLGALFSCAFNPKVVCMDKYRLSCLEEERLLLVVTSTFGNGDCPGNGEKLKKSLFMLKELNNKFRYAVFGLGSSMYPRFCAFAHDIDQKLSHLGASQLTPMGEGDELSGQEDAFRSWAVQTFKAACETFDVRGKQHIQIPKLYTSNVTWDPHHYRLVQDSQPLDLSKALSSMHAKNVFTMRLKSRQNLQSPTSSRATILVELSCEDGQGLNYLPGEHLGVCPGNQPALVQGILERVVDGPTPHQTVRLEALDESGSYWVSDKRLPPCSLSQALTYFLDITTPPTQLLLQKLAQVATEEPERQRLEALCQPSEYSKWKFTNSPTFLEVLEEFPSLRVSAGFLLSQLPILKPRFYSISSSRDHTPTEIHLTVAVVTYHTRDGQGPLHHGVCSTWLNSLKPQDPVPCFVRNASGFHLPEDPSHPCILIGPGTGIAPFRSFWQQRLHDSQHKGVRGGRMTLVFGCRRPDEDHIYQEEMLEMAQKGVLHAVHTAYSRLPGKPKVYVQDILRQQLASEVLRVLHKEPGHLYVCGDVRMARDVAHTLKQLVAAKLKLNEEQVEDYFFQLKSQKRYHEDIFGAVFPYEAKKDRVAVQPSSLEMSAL
Assay Info: Inhibition of human iNOS expressed in HEK293 cells assessed as inhibition of nitric oxide production after 18 hrs using 2,3-diaminonaphthalene by fluorescence assay

Smiles Str	Test System	EC50
Cc1ccnc2c1nc(C1CCC1)n2Cc1cc(=O)[nH]c2c(F)c(F)ccc12	UniProt:P35228	270 nM
CC(C)Cc1nc2ccccc2n1Cc1cc(=O)[nH]c2c(F)c(F)ccc12	UniProt:P35228	380 nM
Cc1ncsc1-c1nc2ccccc2n1Cc1cc(=O)[nH]c2c(F)cccc12	UniProt:P35228	3700 nM
CC(C)(C)c1nc2ccccc2n1Cc1cc(=O)[nH]c2c(F)c(F)ccc12	UniProt:P35228	48000 nM
Cc1cnccc1-c1nc2ccccc2n1Cc1cc(=O)[nH]c2c(F)c(F)ccc12	UniProt:P35228	340 nM
CC(C)Cc1nc2nccnc2n1Cc1cc(=O)[nH]c2c(F)cccc12	UniProt:P35228	290 nM
O=c1cc(Cn2c(C3CC3)nc3ccccc32)c2ccc(F)c(F)c2[nH]1	UniProt:P35228	1600 nM
O=c1cc(Cn2c(C3CCC3)nc3cccnc32)c2ccc(F)c(F)c2[nH]1	UniProt:P35228	180 nM
O=c1cc(Cn2c(C3CCCC3)nc3ccccc32)c2ccc(F)c(F)c2[nH]1	UniProt:P35228	750 nM
CCc1nc2ccccc2n1Cc1cc(=O)[nH]c2c(F)c(F)ccc12	UniProt:P35228	4300 nM
Cc1ccncc1-c1nc2ccccc2n1Cc1cc(=O)[nH]c2c(F)c(F)ccc12	UniProt:P35228	12000 nM
CCCc1nc2ccccc2n1Cc1cc(=O)[nH]c2c(F)c(F)ccc12	UniProt:P35228	730 nM
O=c1cc(Cn2c(CC3CC3)nc3ccccc32)c2ccc(F)c(F)c2[nH]1	UniProt:P35228	600 nM
O=c1cc(Cn2c(C3CC(F)(F)C3)nc3nccnc32)c2ccc(F)c(F)c2[nH]1	UniProt:P35228	120 nM
O=c1cc(Cn2c(-c3cncs3)nc3ccccc32)c2ccc(F)c(F)c2[nH]1	UniProt:P35228	8600 nM
CN(C)c1ccnc2c1nc(C1CCC1)n2Cc1cc(=O)[nH]c2c(F)c(F)ccc12	UniProt:P35228	170 nM
Cc1ncsc1-c1nc2ccccc2n1Cc1cc(=O)[nH]c2c(F)c(F)ccc12	UniProt:P35228	1800 nM
O=c1cc(Cn2c(-c3ccncc3)nc3ccccc32)c2ccc(F)c(F)c2[nH]1	UniProt:P35228	2200 nM

Attribution: ChEMBL document CHEMBL1800057
